EXPERIMENTAL_TARGET: DgcY222–406
Construct: GGDEF domain 222-406 only, TM and helical (HD) regions removed; pET24a, E. coli BL21(DE3), His-tag
MEASUREMENT_DESCRIPTION: microscale thermophoresis (MST)
MEASUREMENT_PARAMETERS: 25 °C, PBS-T; without HhmR; His-tag protein labelled with RED-tris-NTA
OUTCOME_MEASURE: pKd
pKd is a log-scale quantity: -log10 of the concentration expressed in molar.

Requested read-out pKd, target or system DgcY222–406, entry Nc1nc2c(ncn2[C@@H]2O[C@@H]3COP(=O)(O)O[C@H]4[C@@H](O)[C@H](n5cnc6c(=O)[nH]c(N)nc65)O[C@@H]4COP(=O)(O)O[C@H]3[C@H]2O)c(=O)[nH]1 [c-di-GMP]
2.93

Measured values drawn from paper PMC12421958 for this set.
